Source of measurements: patent US20120021972A1

Target: human GLP-1 receptor (human, UniProt P43220 24-463)
Sequence (P43220 24-463): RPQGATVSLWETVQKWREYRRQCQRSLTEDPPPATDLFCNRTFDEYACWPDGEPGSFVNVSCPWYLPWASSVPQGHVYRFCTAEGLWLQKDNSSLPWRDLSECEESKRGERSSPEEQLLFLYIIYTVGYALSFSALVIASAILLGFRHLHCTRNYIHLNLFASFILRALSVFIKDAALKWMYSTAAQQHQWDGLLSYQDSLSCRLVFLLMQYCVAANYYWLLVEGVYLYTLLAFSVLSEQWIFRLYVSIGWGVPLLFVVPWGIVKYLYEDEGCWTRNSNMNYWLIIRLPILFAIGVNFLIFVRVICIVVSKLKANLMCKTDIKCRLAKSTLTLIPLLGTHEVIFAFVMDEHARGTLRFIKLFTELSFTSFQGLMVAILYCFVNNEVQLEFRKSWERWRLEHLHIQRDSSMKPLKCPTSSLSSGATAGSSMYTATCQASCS
Assay: cell-based or functional assay
Starred links: 1 amine or outer side, 2 acyl side, 3 side chain; linkers in the order of their positions; H or OH if unused. Non-standard residues stand in square brackets, D forms with d. No end group written: not given here. *: point of attachment. NMe2F‑APPA = N-methyl-2-amino-5-(2-fluorophenyl)pentanoic acid, CN([C@@H](CCCc1ccccc1F)C(=O)[*:2])[*:1]; AMCB = 2-amino-5-(4-chloro-2-methylphenyl)pentanoic acid, Cc1cc(Cl)ccc1CCC[C@H](N[*:1])C(=O)[*:2]; ACPP = 2-amino-5-(3-chlorophenyl)pentanoic acid, O=C([C@H](CCCc1cccc(Cl)c1)N[*:1])[*:2]; 2F,4CF3‑APPA = 2-amino-5-(2-fluoro-4-(trifluoromethyl)phenyl)pentanoic acid; Bip(2'-Et-4'-OMe) = CCc1cc(OC)ccc1-c1ccc(C[C@H](N)C(=O)O)cc1; Leu(5,5,5,5',5',5'-F6) = N[C@@H](CC(C(F)(F)F)C(F)(F)F)C(=O)O; Nva(5-(3,5-Me2Ph)) = Cc1cc(C)cc(CCC[C@H](N)C(=O)O)c1; 2Cl‑APPA = 2-amino-5-(2-chlorophenyl)pentanoic acid; 2F‑APPA = 2-amino-5-(2-fluorophenyl)pentanoic acid; αMePhe(2-F) = C[C@](N)(Cc1ccccc1F)C(=O)O; Phe(2-F) = N[C@@H](Cc1ccccc1F)C(=O)O; NMeBip(OMe) = N-methylated Bip(OMe); hhPhe = N[C@@H](CCCc1ccccc1)C(=O)O; NMeD = CN[C@@H](CC(=O)O)C(=O)O; aThr = C[C@H](O)[C@H](N)C(=O)O; NMeAPPA = not defined here; CNB = not defined here; Aib = CC(C)(N)C(=O)O; Moc = COC(=O)*
OBSERVABLE: cAMP release, % activity, 10 nM (%)

H[Aib][CNB]GTFTSD[Bip(2'-Et-4'-OMe)][hhPhe] (reading uncertain) [Seq. ID. No. 29: H-Aib-(CNB)-GTFTSD-Bip(OMe)-(APPA)] ... 99
H[Aib][Leu(5,5,5,5',5',5'-F6)]GT[αMePhe(2-F)]TSD[Bip(2'-Et-4'-OMe)][Nva(5-(3,5-Me2Ph))] [Seq. ID. No. 235: H-Aib-(Hfl)-GT-(α-Me-2F-Phe)-TSD-Bip(OMe)-(ADMP)] ... 99
H[Aib][CNB]GTFTSD[Bip(2'-Et-4'-OMe)][2F‑APPA] (reading uncertain) [Seq. ID. No. 77: H-Aib-(CNB)-GTFTSD-Bip(OMe)-(2F-APPA)] ... 81
H[Aib][CNB]GTFTSD[Bip(2'-Et-4'-OMe)][AMCB] (reading uncertain) [Seq. ID. No. 32: H-Aib-(CNB)-GTFTSD-Bip(OMe)-(AMCB)] ... 80
H[Aib][Leu(5,5,5,5',5',5'-F6)]G[aThr][αMePhe(2-F)][aThr]SD[Bip(2'-Et-4'-OMe)][2F‑APPA] (also: thioamide (C═S) bonds Z9-Z10 and Z10-Z11) [Seq. ID. No. 216: H-Aib-(Hfl)-G-T(allo)-(α-Me-2F-Phe)-T(allo)-SD-(C═S)-Bip(OMe)-(C═S)-(2F-APPA)] ... 99
H[Aib][Leu(5,5,5,5',5',5'-F6)]G[aThr][αMePhe(2-F)][aThr]S[NMeD][NMeBip(OMe)][NMeAPPA] (reading uncertain) [Seq. ID. No. 220: H-Aib-(Hfl)-G-T(allo)-(α-Me-2F-Phe)-T(allo)-S-(NMe)D-((NMe)Bip(OMe))-((NMe)(APPA))] ... 99
Moc-H[Aib]QGT[αMePhe(2-F)]TSD[Bip(2'-Et-4'-OMe)][2F‑APPA] (also: reduced (CH2) bonds between 9-10 and 10-11) [Seq. ID. No. 196: CH3OCO-H-Aib-QGT-(α-Me-2F-Phe)-TSD-(CH2)-BiP(OMe)-(CH2)-(2F-APPA)] ... 81
H[Aib][CNB]GTFTSD[Bip(2'-Et-4'-OMe)][2Cl‑APPA] (reading uncertain) [Seq. ID. No. 82: H-Aib-(CNB)-GTFTSD-Bip(OMe)-(2Cl-APPA)] ... 99
H[Aib][CNB]G[aThr][αMePhe(2-F)][aThr]S[NMeD][NMeBip(OMe)][NMeAPPA] (reading uncertain) [Seq. ID. No. 154: H-Aib-(CNB)-G-T(allo)-(α-Me-2F-Phe)-T(allo)-S-(NMe)D-((NMe)Bip(OMe))-((NMe)(APPA))] ... 92
H[Aib][CNB]GTFTSD[Bip(2'-Et-4'-OMe)][2F,4CF3‑APPA] (reading uncertain) [Seq. ID. No. 81: H-Aib-(CNB)-GTFTSD-Bip(OMe)-(2F, 4CF3-APPA)] ... 98
H[Aib]QGT[αMePhe(2-F)]TSD[Bip(2'-Et-4'-OMe)][ACPP] [Seq. ID. No. 39: H-Aib-QGT-(α-Me-2F-Phe)-TSD-Bip(OMe)-(ACPP)] ... 81
Ac-H[Aib][Leu(5,5,5,5',5',5'-F6)]GT[αMePhe(2-F)]TSD[Bip(2'-Et-4'-OMe)][hhPhe] [Seq. ID. No. 210: CH3CO-H-Aib-(Hfl)-GT-(α-Me-2F-Phe)-TSD-Bip(OMe)-(APPA)] ... 85
Ac-H[Aib][CNB]GT[αMePhe(2-F)]TSD[Bip(2'-Et-4'-OMe)][hhPhe] (reading uncertain) [Seq. ID. No. 205: CH3CO-H-Aib-(CNB)-GT-(α-Me-2F-Phe)-TSD-Bip(OMe)-(APPA)] ... 99
H[Aib][CNB]G[aThr][αMePhe(2-F)][aThr]S[NMeD][NMeBip(OMe)][NMe2F‑APPA] (reading uncertain) ... 99
H[Aib][CNB]G[aThr][αMePhe(2-F)][aThr]SD[Bip(2'-Et-4'-OMe)][2F‑APPA] (reading uncertain; also: reduced (CH2) bonds Z9-Z10 and Z10-Z11) [Seq. ID. No. 204: H-Aib-(CNB)-G-T(allo)-(α-Me-2F-Phe)-T(allo)-SD-(CH2)-Bip(OMe)-(CH2)-(2F-APPA)] ... 99
H[Aib][CNB]GT[αMePhe(2-F)][aThr]SD[Bip(2'-Et-4'-OMe)][2F‑APPA] (reading uncertain) [Seq. ID. No. 120: H-Aib-(CNB)-GT-(α-Me-2F-Phe)-T(allo)-SD-Bip(OMe)-(2F-APPA)] ... 99
Ac-H[Aib]QG[aThr][αMePhe(2-F)][aThr]SD[Bip(2'-Et-4'-OMe)][hhPhe] [Seq. ID. No. 101: CH3CO-H-Aib-QG-T(allo)-(α-Me-2F-Phe)-T(allo)-SD-Bip(OMe)-(APPA)] ... 82
H[Aib]QGT[Phe(2-F)]TSD[Bip(2'-Et-4'-OMe)][Nva(5-(3,5-Me2Ph))] [Seq. ID. No. 42: H-Aib-QGT-(2F-Phe)-TSD-Bip(OMe)-(ADMP)] ... 81
H[Aib]QG[aThr][αMePhe(2-F)][aThr]SD[Bip(2'-Et-4'-OMe)][2F‑APPA] (also: reduced (CH2) bonds Z9-Z10 and Z10-Z11) [Seq. ID. No. 203: H-Aib-QG-T(allo)-(α-Me-2F-Phe)-T(allo)-SD-(CH2)-Bip(OMe)-(CH2)-(2F-APPA)] ... 99
